- Procedure text: Cmax in Beagle dog at 15 mg/kg, po co-administered with 7.5 mg/kg of ritonavir, po
- Format: ADME, organism-based, Canis lupus familiaris
- Design: dose 15 mg/kg, route oral
- Test conditions: in vivo
Observed property: Cmax (µM)
Express your answer in µM, writing the number without its unit.

Quick note, Cmax for "COc1cccc(C[C@H](NC(=O)c2cccc(N)c2Cl)[C@H](O)C(=O)N2CSC(C)(C)[C@H]2C(=O)NCc2c(C)cccc2C)c1" landed at 5.3

* * *

- Study target: Protease (Human immunodeficiency virus 1)
- Sequence (Q9YQ12 whole entry): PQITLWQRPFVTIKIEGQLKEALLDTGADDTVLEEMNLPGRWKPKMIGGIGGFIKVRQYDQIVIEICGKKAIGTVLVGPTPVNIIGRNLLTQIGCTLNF
Under this convention, class 1 denotes Ki strictly below 0.1 nM and class 0 denotes Ki at or above 0.1 nM.

Asked: API: query returns whether the molecule falls strictly under 0.1 nM in Ki. Query: "CC(C)CN(C[C@@H](O)[C@H](Cc1ccccc1)NC(=O)O[C@H]1CCOC1)S(=O)(=O)c1ccc(N)cc1"
Given back: class 0

Asked: API: query returns whether the molecule falls strictly under 0.1 nM in Ki. Query: COC(=O)N[C@H](C(=O)N[C@@H](Cc1ccccc1)[C@@H](O)CN(Cc1ccc(-c2ccccn2)cc1)NC(=O)[C@@H](NC(=O)OC)C(C)(C)C)C(C)(C)C [ATAZANAVIR]
Given back: class 1

Asked: API: query returns whether the molecule falls strictly under 0.1 nM in Ki. Query: "COc1cccc(C[C@H](NC(=O)c2cccc(N)c2Cl)[C@H](O)C(=O)N2CSC(C)(C)[C@H]2C(=O)NCc2c(C)cccc2C)c1"
Given back: class 0

Asked: API: query returns whether the molecule falls strictly under 0.1 nM in Ki. Query: "Cc1c(O)cccc1C(=O)N[C@@H](CSc1ccccc1)[C@H](O)CN1C[C@H]2CCCC[C@H]2C[C@H]1C(=O)NC(C)(C)C"
Given back: class 0

Asked: API: query returns whether the molecule falls strictly under 0.1 nM in Ki. Query: "Cc1cccc(C)c1CNC(=O)[C@H]1N(C(=O)[C@@H](O)[C@H](Cc2ccc3c(c2)OCO3)NC(=O)c2cccc(N)c2Cl)CSC1(C)C"
Given back: class 1

* * *

For each entry below, report its remaining at 5 µM value.
- Procedure text: Metabolic stability in human liver microsomes assessed as compound remaining at 5 uM in presence of UDPGA by RP-HPLC
- Assay type: ADME, Microsome
- Test conditions: read-out: Stability
Express your answer in %, writing the number without its unit.

Quick note, remaining at 5 µM for "CCOc1ccc(C[C@H](NC(=O)c2cccc(N)c2Cl)[C@H](O)C(=O)N2CSC(C)(C)[C@H]2C(=O)NCc2ccccc2C)cc1" landed at 89

Quick note, remaining at 5 µM for "COc1cccc(C[C@H](NC(=O)c2cccc(N)c2Cl)[C@H](O)C(=O)N2CSC(C)(C)[C@H]2C(=O)NCc2ccccc2C)c1" landed at 93

* * *

- Test system: Human immunodeficiency virus 1
- Procedure text: Antiviral activity against HIV1 mutant strain 7
- Format: functional, organism-based
For each entry below, report its pEC50 value.
On this scale, pEC50 is minus log10 of a concentration expressed in M (mol/L).

Quick note, pEC50 for "CC(C)(C)NC(=O)[C@@H]1C[C@@H]2CCCC[C@@H]2CN1C[C@@H](O)[C@H](Cc1ccccc1)NC(=O)[C@H](CC(N)=O)NC(=O)c1ccc2ccccc2n1" landed at 6.85

Quick note, pEC50 for "COC(=O)N[C@H](C(=O)N[C@@H](Cc1ccccc1)[C@@H](O)CN(Cc1ccc(-c2ccccn2)cc1)NC(=O)[C@@H](NC(=O)OC)C(C)(C)C)C(C)(C)C" landed at 7.13

Quick note, pEC50 for "Cc1cccc(C)c1OCC(=O)N[C@@H](Cc1ccccc1)[C@@H](O)C[C@H](Cc1ccccc1)NC(=O)[C@H](C(C)C)N1CCCNC1=O" landed at 6.67

Quick note, pEC50 for "COc1cccc(C[C@H](NC(=O)c2cccc(N)c2Cl)[C@H](O)C(=O)N2CSC(C)(C)[C@H]2C(=O)NCc2c(C)cccc2C)c1" landed at 7.38

Quick note, pEC50 for "Cc1c(O)cccc1C(=O)N[C@@H](CSc1ccccc1)[C@H](O)CN1C[C@H]2CCCC[C@H]2C[C@H]1C(=O)NC(C)(C)C" landed at 6.29

Quick note, pEC50 for "CC(C)(C)NC(=O)[C@@H]1CN(Cc2cccnc2)CCN1C[C@@H](O)C[C@@H](Cc1ccccc1)C(=O)N[C@H]1c2ccccc2C[C@H]1O" landed at 6.84

Quick note, pEC50 for "CC(C)CN(C[C@@H](O)[C@H](Cc1ccccc1)NC(=O)O[C@H]1CCOC1)S(=O)(=O)c1ccc(N)cc1" landed at 6.78

* * *

- Procedure text: Oral bioavailability in Beagle dog at 15 mg/kg
- Assay type: ADME, organism-based, Canis lupus familiaris
- Test conditions: in vivo
For each entry below, report its bioavailability value.
Express your answer in %, writing the number without its unit.

Quick note, bioavailability for "COc1cccc(C[C@H](NC(=O)c2cccc(N)c2Cl)[C@H](O)C(=O)N2CCC(C)(C)[C@H]2C(=O)NCc2c(C)cccc2C)c1" landed at 146

Quick note, bioavailability for "Cc1ccccc1CNC(=O)[C@H]1N(C(=O)[C@@H](O)[C@H](Cc2ccccc2)NC(=O)c2cccc(O)c2C)CSC1(C)C" landed at 25

Quick note, bioavailability for "COc1cccc(C[C@H](NC(=O)c2cccc(N)c2Cl)[C@H](O)C(=O)N2CSC(C)(C)[C@H]2C(=O)NCc2c(C)cccc2C)c1" landed at 71

Quick note, bioavailability for COC(=O)N[C@H](C(=O)N[C@@H](Cc1ccccc1)[C@@H](O)CN(Cc1ccc(-c2ccccn2)cc1)NC(=O)[C@@H](NC(=O)OC)C(C)(C)C)C(C)(C)C [ATAZANAVIR] landed at 102

* * *

- Procedure text: Plasma concentration in Beagle dog at 15 mg/kg, po after 12 hrs
- Assay type: ADME, organism-based, Canis lupus familiaris
- Set-up: dose 15 mg/kg, route oral
For each entry below, report its concentration at 12 h value.
Express your answer in nM, writing the number without its unit.

Quick note, concentration at 12 h for "COc1cccc(C[C@H](NC(=O)c2cccc(N)c2Cl)[C@H](O)C(=O)N2CCC(C)(C)[C@H]2C(=O)NCc2c(C)cccc2C)c1" landed at 710

Quick note, concentration at 12 h for "COc1cccc(C[C@H](NC(=O)c2cccc(N)c2Cl)[C@H](O)C(=O)N2CSC(C)(C)[C@H]2C(=O)NCc2c(C)cccc2C)c1" landed at 130

Quick note, concentration at 12 h for "COC(=O)N[C@H](C(=O)N[C@@H](Cc1ccccc1)[C@@H](O)CN(Cc1ccc(-c2ccccn2)cc1)NC(=O)[C@@H](NC(=O)OC)C(C)(C)C)C(C)(C)C" landed at 50

Quick note, concentration at 12 h for "Cc1ccccc1CNC(=O)[C@H]1N(C(=O)[C@@H](O)[C@H](Cc2ccccc2)NC(=O)c2cccc(O)c2C)CSC1(C)C" landed at 30

* * *

- System: Human immunodeficiency virus 1
- Procedure text: Antiviral activity against HIV1 mutant strain 5
- Assay type: functional, organism-based
Under this convention, satisfied denotes EC50 strictly below 300 nM and not satisfied denotes EC50 at or above 300 nM.

Asked: API: query returns whether the compound falls strictly under 300 nM in EC50. Query: "COC(=O)N[C@H](C(=O)N[C@@H](Cc1ccccc1)[C@@H](O)CN(Cc1ccc(-c2ccccn2)cc1)NC(=O)[C@@H](NC(=O)OC)C(C)(C)C)C(C)(C)C"
Given back: satisfied

Asked: API: query returns whether the compound falls strictly under 300 nM in EC50. Query: "CC(C)(C)NC(=O)[C@@H]1CN(Cc2cccnc2)CCN1C[C@@H](O)C[C@@H](Cc1ccccc1)C(=O)N[C@H]1c2ccccc2C[C@H]1O"
Given back: not satisfied

Asked: API: query returns whether the compound falls strictly under 300 nM in EC50. Query: "CC(C)(C)NC(=O)[C@@H]1C[C@@H]2CCCC[C@@H]2CN1C[C@@H](O)[C@H](Cc1ccccc1)NC(=O)[C@H](CC(N)=O)NC(=O)c1ccc2ccccc2n1"
Given back: not satisfied

Asked: API: query returns whether the compound falls strictly under 300 nM in EC50. Query: "COc1cccc(C[C@H](NC(=O)c2cccc(N)c2Cl)[C@H](O)C(=O)N2CSC(C)(C)[C@H]2C(=O)NCc2c(C)cccc2C)c1"
Given back: satisfied

Asked: API: query returns whether the compound falls strictly under 300 nM in EC50. Query: "Cc1c(O)cccc1C(=O)N[C@@H](CSc1ccccc1)[C@H](O)CN1C[C@H]2CCCC[C@H]2C[C@H]1C(=O)NC(C)(C)C"
Given back: not satisfied

Asked: API: query returns whether the compound falls strictly under 300 nM in EC50. Query: "Cc1cccc(C)c1OCC(=O)N[C@@H](Cc1ccccc1)[C@@H](O)C[C@H](Cc1ccccc1)NC(=O)[C@H](C(C)C)N1CCCNC1=O"
Given back: not satisfied

Asked: API: query returns whether the compound falls strictly under 300 nM in EC50. Query: "CC(C)CN(C[C@@H](O)[C@H](Cc1ccccc1)NC(=O)O[C@H]1CCOC1)S(=O)(=O)c1ccc(N)cc1"
Given back: not satisfied

Asked: API: query returns whether the compound falls strictly under 300 nM in EC50. Query: "CC(C)c1nc(CN(C)C(=O)N[C@H](C(=O)N[C@@H](Cc2ccccc2)C[C@H](O)[C@H](Cc2ccccc2)NC(=O)OCc2cncs2)C(C)C)cs1"
Given back: not satisfied
